Biological target: human GCG receptor (human, UniProt P47871 26-477)
Sequence (P47871 26-477): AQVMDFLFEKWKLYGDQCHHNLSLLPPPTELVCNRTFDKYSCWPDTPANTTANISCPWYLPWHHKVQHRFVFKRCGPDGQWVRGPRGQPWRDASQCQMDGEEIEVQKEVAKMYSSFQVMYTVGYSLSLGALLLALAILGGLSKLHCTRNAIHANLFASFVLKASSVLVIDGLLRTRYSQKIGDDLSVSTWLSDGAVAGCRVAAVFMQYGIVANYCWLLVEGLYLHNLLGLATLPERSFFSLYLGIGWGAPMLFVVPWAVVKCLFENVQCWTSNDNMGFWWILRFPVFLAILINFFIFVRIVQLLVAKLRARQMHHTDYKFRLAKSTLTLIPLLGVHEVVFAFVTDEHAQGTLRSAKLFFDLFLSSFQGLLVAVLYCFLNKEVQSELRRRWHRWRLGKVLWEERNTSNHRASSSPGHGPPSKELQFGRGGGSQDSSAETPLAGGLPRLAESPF
Test: cell-based or functional assay
Bridges are numbered along the chain shown (N, C = ends). Where no end group is shown, it is not given here. [ ]: non-standard residue; d: D form. The star is where a group is joined. Acetyl(2-(4-imidazolyl)) = O=C(Cc1c[nH]cn1)*; Aib = CC(C)(N)C(=O)O
Reported In vitro activity compared with native peptide (%) vs. Glucagon values for a set of binders
QUANTITY: In vitro activity compared with native peptide (%) vs. Glucagon

Y[Aib]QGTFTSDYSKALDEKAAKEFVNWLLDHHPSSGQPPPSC (bridge 16-20) [Triple agonist of SEQ ID NO: 98]
8.2
{Acetyl(2-(4-imidazolyl))}-[Aib]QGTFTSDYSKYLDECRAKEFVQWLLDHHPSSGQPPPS (bridge 15-19) [Triple agonist of SEQ ID NO: 73]
5.4
{Acetyl(2-(4-imidazolyl))}-[Aib]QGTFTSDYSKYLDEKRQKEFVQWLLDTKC (bridge 15-19) [Triple agonist of SEQ ID NO: 89]
0.7

The values you see were collected from patent US20240024426A1.
